Entries and their measured Ratio IC50 follow.
Species on record: Homo sapiens
experimental.protocol: Selectivity ratio of IC50 for inhibition of human U937 cells derived PDE4D to inhibition of human U937 cells derived PDE4B

Solved entries:
{"columns": ["compound.structure.string", "Ratio IC50"],
 "data": [
  ["Cc1ccc(-c2nc(C(=O)N3CCS/C3=N/C#N)co2)cc1", 7.27],
  ["N#C/N=C1/SCCN1C(=O)c1ccc(-c2c(F)cccc2F)o1", 4.01]
]}

Value lookup for Ratio IC50; key = N#C/N=C1/SCCN1C(=O)c1ccc(-c2ccc(F)cc2)o1
4.93

One more compound: N#C/N=C1/SCCN1C(=O)c1coc(-c2cccc(Cl)c2)n1
5.66
